# Tested on: MALME-3M melanoma
# protocol_details: NCI-60 one-dose screen, 48 h (100 = growth as untreated, 0 = no growth, -100 = all killed)
# condition_notes: 10 µM unless noted
# Protocol: Cells are grown in 96 well plates and exposed to the test compound for 48 hours. Compounds are tested at a single concentration, which is 10^-5 M for most compounds. The reported endpoint is percent growth (GI% or GIPRCNT), where numbers from 0 - 100% represent growth inhibition, and numbers from -100% - 0 represent cell death. For example, a value of 40 represents 60% growth inhibition. A value of 0 means no net growth occurred over the course of the experiment. […]
This is part of a sample that, as a whole, favours compounds with a hit. Of some 83,000 tested, about 20% had one in any assay.

| smiles_str | measurement_units | growth |
| --- | --- | --- |
| O=C(NCc1cn(Cc2cccc(Oc3ccccc3)c2)nn1)c1cccnc1NCc1ccc(Cl)cc1 | % | 48.2 |
| Clc1ccc(/C=N\N=c2\scc(-c3ccc(Cl)cc3)n2/N=C/c2ccc(Cl)cc2)cc1 | % | 100 |
| NS(=O)(=O)Oc1ccc(-c2sc3cc(O)ccc3c2C(=O)c2ccc(OCCN3CCCCC3)cc2)cc1 | % | 63.7 |
| CCN(CC)S(=O)(=O)c1ccc(O)c(NC(=O)c2[nH]c(C)c(C(C)=O)c2CCc2ccc(Cl)cc2)c1 | % | 53 |
| O=C(CCl)N1c2cccc3cccc(c23)N(C(=O)CCl)C1c1cn(-c2ccccc2)nc1-c1cccc([N+](=O)[O-])c1 | % | 108 |
| C/C(=N\NC(N)=S)c1nc2ccc(Cl)cc2[nH]1 | % | 113 |
| CCN(CC)CCOc1ccc(/C(=C(\C)c2ccc(OC)c(F)c2)c2ccc(Cl)cc2)cc1 | % | 55.9 |
| COc1ccc(-c2nnc(-c3ccc4c(c3)nc(-c3ccccc3)n4C3CCCCC3)o2)cc1 | % | 69.4 |
| COc1ccc(-c2cncnc2N)cc1OC | % | 111 |

---

# Test system: NCI-H226 lung
# protocol_details: NCI-60 one-dose screen, 48 h (100 = growth as untreated, 0 = no growth, -100 = all killed)
# condition_notes: 10 µM unless noted
The panel holds about 83,000 compounds, 20% with a hit somewhere; the sample as a whole holds those more often. Activity calls are given as the source filed them. Rule for the calls: active = growth percent below 10; inactive = the rest.
Each entry below carries its recorded growth.

| compound | test_target | growth |
| --- | --- | --- |
| CCOC(=O)c1cnn2c(-c3ccc(Cl)cc3)nc(NCc3ccccc3)nc12 | NCI-H226 lung | 89.3% (inactive) |
| C=C1c2c(C)nn(-c3ccc(NC(C)=O)cc3)c2N(C)C23CC1C1(C)c4c(C)nn(-c5ccc(NC(C)=O)cc5)c4N(C)C(C)(CC12)C3 (centres undefined) | NCI-H226 lung | 47.2% (inactive) |
| CC(=O)c1ccc2c(c1)CCN2 | NCI-H226 lung | 102% (inactive) |
| COc1cc(-c2ccc(N=Nc3c(O)c(C(=O)Nc4ccccc4OC)cc4ccccc34)c(OC)c2)ccc1N=Nc1c(O)c(C(=O)Nc2ccccc2OC)cc2ccccc12 | NCI-H226 lung | 94.1% (inactive) |

---

# System: TK-10 renal
# protocol_details: NCI-60 one-dose screen, 48 h (100 = growth as untreated, 0 = no growth, -100 = all killed)
# condition_notes: 10 µM unless noted
This is part of a sample that, as a whole, favours compounds with a hit. Of some 83,000 tested, about 20% had one in any assay.

| compound | test_target | measurement_units | growth |
| --- | --- | --- | --- |
| C=C1c2c(C)nn(-c3ccc(S(N)(=O)=O)cc3)c2N(C)C23CC1C1(C)c4c(C)nn(-c5ccc(S(N)(=O)=O)cc5)c4N(C)C(C)(CC12)C3 (configuration not stated) | TK-10 renal | % | 46.6 |
| COc1ccc2c(c1)/C(=C\c1sc(=S)[nH]c1O)C(C(=O)O)=N2 | TK-10 renal | % | 108 |
| N#Cc1c(-c2ccc(C(F)(F)F)cc2)cc(N2CC(O)C2)n2c1nc1ccccc12 | TK-10 renal | % | 64 |
| CCC(C)NCc1ccccc1 (configuration not stated) | TK-10 renal | % | 96.9 |
| Cc1nc(C)c(-c2nn3c(-c4cccc(F)c4)nnc3s2)s1 | TK-10 renal | % | 77.6 |
| NC(N)=N/N=C/c1ccc(Br)cc1 | TK-10 renal | % | 13.9 |
| CSc1nc(N)c(CNC(C)c2ccccc2)c(=O)n1C (configuration not stated) | TK-10 renal | % | 120 |
| O=C(CCl)N1c2cccc3cccc(c23)N(C(=O)CCl)C1c1cn(-c2ccccc2)nc1-c1cccc([N+](=O)[O-])c1 | TK-10 renal | % | 104 |
| O=C(/C=C/c1ccccc1)c1ccc2ccccc2c1 | TK-10 renal | % | 44.4 |
| COc1cc2c(cc1OC)-c1ccc3cc4c(cc3c1N(CCN1CCCC1)C2)OCO4 | TK-10 renal | % | 34.2 |
| O=C1NN(C(=O)c2ccc(O)cc2)C(c2ccccc2)=N/C1=C\c1cn(-c2ccccc2)nc1-c1ccccc1 | TK-10 renal | % | 84.7 |
| N#C/C(=C\c1ccc(Br)cc1)n1nnc2cc(Cl)c(Cl)cc21 | TK-10 renal | % | 59.6 |

These entries and their values trace back to PubChem BioAssay (NCI).
